Cited source for all entries: ChEMBL document CHEMBL4007417

Tested on: Plasmodium yoelii
assay.explanation: Antimalarial activity against Plasmodium yoelii YM infected in BALB/c mouse assessed as parasite growth inhibition at 10 mg/kg, sc administered BID for 4 days starting at 96 hrs post infection, 8 hrs apart by Giemsa-staining based microscopic analysis
Type: functional
test.settings: read-out: GI
measured.metric: inhibition in vivo at 10 mg/kg (%)
Write the answer as a number in %, unit excluded.

Known inhibition in vivo at 10 mg/kg results, listed for orientation:
- CCc1nc(N)nc(N)c1-c1ccc(Cl)cc1: 100
- Cc1c(-c2ccc(Cc3ccc(SC(F)(F)F)cc3)cc2)[nH]c2cccc(F)c2c1=O: 0
- Cc1c(-c2ccc(Cc3ccc(OC(F)(F)F)cc3)cc2)[nH]c2cccc(F)c2c1=O: 100

# evaluate next
Tested on Plasmodium yoelii, the item C[C@H]1[C@@H](O)O[C@@H]2O[C@@]3(C)CC[C@H]4[C@H](C)CC[C@@H]1[C@@]24OO3 showed inhibition in vivo at 10 mg/kg equal to 100
